Source: patent US11944622B2

Listed next: entries and their corresponding pEC50.
# Test target: APJ Receptor (Homo sapiens)
# Experimental protocol: APJ cAMP assay (DiscoverX enzyme fragment complementation; inhibition of forskolin-stimulated cAMP)
# Run conditions: CHO-K1 cell line stably expressing the APJ Receptor; EC80 forskolin; 30 minutes at 37° C.; read-out: Potency Range (APJ cAMP EC50)
pEC50: −log10 of the molar value.

Completed entries (count: 2):
Item smiles: CCOc1cccc(-c2nc3nc(NS(=O)(=O)CC4(O)CC4)cnc3n2-c2c(OC)cccc2OC)n1
Test target: APJ Receptor (Homo sapiens)
pEC50: 7.00 to 9.00
//
Item smiles: COc1cccc(OC)c1-n1c(-c2cccc(OCC(F)(F)F)n2)nc2ncc(NS(C)(=O)=O)nc21
Test target: APJ Receptor (Homo sapiens)
pEC50: 7.00 to 9.00

Requested read-out pEC50, target or system APJ Receptor (Homo sapiens), entry CCOc1cccc(-c2nc3nc(NS(=O)(=O)Cc4ncc(C)cn4)cnc3n2-c2c(OC)cccc2OC)n1
> 9.00

API: value(readout=pEC50, system=APJ Receptor (Homo sapiens)) for record CCOc1cccc(-c2nc3ncc(NS(=O)(=O)c4ccncc4)nc3n2-c2c(OC)cccc2OC)n1
7.00 to 9.00

Hello, I am looking for reported pEC50 with APJ Receptor (Homo sapiens) for CCOc1cccc(-c2nc3nnc(NS(=O)(=O)c4ccc(F)cn4)cc3n2-c2c(OC)cccc2OC)n1 . Could you help?
> 9.00

====

# Test target: APJ Receptor (Homo sapiens, UniProt P35414)
# Sequence (P35414 whole entry, the tested form may be a part): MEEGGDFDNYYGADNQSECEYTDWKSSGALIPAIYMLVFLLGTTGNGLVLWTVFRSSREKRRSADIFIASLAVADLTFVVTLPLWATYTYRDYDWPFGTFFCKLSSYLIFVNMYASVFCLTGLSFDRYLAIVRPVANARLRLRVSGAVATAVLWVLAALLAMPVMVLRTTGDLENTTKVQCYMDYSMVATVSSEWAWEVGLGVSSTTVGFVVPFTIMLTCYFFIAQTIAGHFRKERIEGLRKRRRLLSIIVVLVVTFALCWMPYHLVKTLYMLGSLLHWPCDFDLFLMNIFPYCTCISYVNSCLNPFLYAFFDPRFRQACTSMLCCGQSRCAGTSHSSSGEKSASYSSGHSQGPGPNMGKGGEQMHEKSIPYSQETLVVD
# Experimental protocol: APJ cAMP assay (DiscoverX enzyme fragment complementation; inhibition of forskolin-stimulated cAMP)
# Run conditions: CHO-K1 cell line stably expressing the APJ Receptor; EC80 forskolin; 30 minutes at 37° C.; read-out: Potency Range (APJ cAMP EC50)
pEC50: −log10 of the molar value.
pEC50 for assorted compounds

Compound: CCOc1cccc(-c2nc3nnc(NS(=O)(=O)Cc4ccc(Cl)cn4)cc3n2-c2c(OC)cccc2OC)n1 [Example 123]
Endpoint result: > 9.00

Compound: CCOc1cccc(-c2nc3nc(NS(=O)(=O)CC4CC4)cnc3n2-c2c(OC)cccc2OC)n1 [Example 45]
Endpoint result: > 9.00

Compound: CCOc1cccc(-c2nc3nc(Cl)c(NS(=O)(=O)Cc4ncc(F)cn4)nc3n2-c2c(OC)cccc2OC)n1 [Example 105]
Endpoint result: > 9.00

Compound: CCOc1cccc(-c2nc3nc(Cl)c(NS(=O)(=O)Cc4ccc(C)cn4)nc3n2-c2c(OC)cccc2OC)n1 [Example 114]
Endpoint result: 7.00 to 9.00

Compound: CCOc1cccc(-c2nc3nc(Cl)c(NS(=O)(=O)c4ccc(F)cn4)nc3n2-c2c(OC)cccc2OC)n1 [Example 99]
Endpoint result: 7.00 to 9.00

Compound: CCOc1cccc(-c2nc3ncc(NS(=O)(=O)C4CC4)nc3n2-c2c(OC)cccc2OC)n1 [Example 22]
Endpoint result: 7.00 to 9.00

Compound: CCOc1cccc(-c2nc3nc(Cl)c(NS(=O)(=O)C[C@H]4C[C@](C)(O)C4)nc3n2-c2c(OC)cccc2OC)n1 [Example 115]
Endpoint result: > 9.00

Compound: CCOc1cccc(-c2nc3nc(NS(=O)(=O)N4CCOCC4)cnc3n2-c2c(OC)cccc2OC)n1 [Example 90]
Endpoint result: > 9.00

Item under review: CCOc1cccc(-c2nc3nc(Cl)c(NS(=O)(=O)C4CC4)nc3n2-c2c(OC)cncc2OC)n1 [Example 118] . Reported pEC50?
7.00 to 9.00

Fill blank: measured pEC50 of the compound CCOc1cccc(-c2nc3ncc(NS(=O)(=O)c4cccnc4)nc3n2-c2c(OC)cccc2OC)n1 [Example 24] is ____.
7.00 to 9.00

What does the record list as pEC50 for CCOc1cccc(-c2nc3nc(O)c(NS(C)(=O)=O)nc3n2-c2c(OC)cccc2OC)n1 [Example 135] ?
7.00 to 9.00

Query (compound): CCOc1cccc(-c2nc3ncc(O)nc3n2-c2c(OC)cccc2C(F)(F)F)n1 [Example 47] ; field requested: pEC50
5.00 to 7.00

Would you mind telling me what pEC50 value was observed for CCOc1cccc(-c2nc3ncc(CCc4ccccc4)nc3n2-c2c(OC)cccc2OC)n1 [Example 7] ?
7.00 to 9.00

Look up pEC50 for this compound: CCOc1cccc(-c2nc3ncc(NS(=O)(=O)CC(C)(C)O)nc3n2-c2c(OC)cccc2OC)n1 [Example 70]
7.00 to 9.00

Dear colleague, I am looking for the recorded pEC50 of the following compound: CCOc1cccc(-c2nc3nc(Cl)c(NS(=O)(=O)c4ccc(C(F)F)cc4)nc3n2-c2c(OC)cccc2OC)n1 [Example 106]
7.00 to 9.00

Fill in the blank: the reported pEC50 of CCOc1cccc(-c2nc3nc(NS(C)(=O)=O)c(Cl)nc3n2-c2c(OC)cccc2OC)n1 [Example 138] is ____.
7.00 to 9.00

For the compound shown here, CCOc1cccc(-c2nc3ncc(NS(=O)(=O)Cc4cncnc4)nc3n2-c2c(OC)cccc2OC)n1 [Example 35] , give the reported pEC50.
7.00 to 9.00

Fill in: pEC50 of CCOc1cccc(-c2nc3nnc(NS(=O)(=O)Cc4ccc(C)cn4)cc3n2-c2c(OC)cccc2OC)n1 [Example 124] is ___
> 9.00

Entry CCOc1cccc(-c2nc3nnc(NS(=O)(=O)N4CCOCC4)cc3n2-c2c(OC)cccc2OC)n1 [Example 121] : reported pEC50 = ?
7.00 to 9.00
